- experimental.target: mouse DLL3 on CHO-K1-mDLL3 cells (mouse) (UniProt O88516)
- Sequence (O88516 other isoform, or with tags, fused parts or gaps limits assumed): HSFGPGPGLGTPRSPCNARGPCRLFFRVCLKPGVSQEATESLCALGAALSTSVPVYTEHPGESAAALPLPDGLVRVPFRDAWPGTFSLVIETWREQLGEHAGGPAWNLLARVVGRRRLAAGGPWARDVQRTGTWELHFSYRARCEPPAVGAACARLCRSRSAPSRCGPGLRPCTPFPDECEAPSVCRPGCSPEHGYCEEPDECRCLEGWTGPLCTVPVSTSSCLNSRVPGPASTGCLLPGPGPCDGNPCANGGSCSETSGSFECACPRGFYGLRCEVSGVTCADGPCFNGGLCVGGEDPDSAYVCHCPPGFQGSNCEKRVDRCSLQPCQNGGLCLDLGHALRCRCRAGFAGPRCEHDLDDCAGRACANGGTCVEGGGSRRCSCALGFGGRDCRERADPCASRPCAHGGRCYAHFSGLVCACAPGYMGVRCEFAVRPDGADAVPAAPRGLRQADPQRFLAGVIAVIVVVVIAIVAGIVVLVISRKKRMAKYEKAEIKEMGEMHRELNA
- protocol.notes: FACS, CHO-K1-mDLL3 cells, 20 nM antibody
The following binders are listed with their measured MFI values.

{"binder": "Hab015VL4VH5a-hFc (scFv, part only; not given: VL-VH linker and human IgG1 Fc, V domains shown, not shown: another chain or arm of the molecule; a dimerising Fc or GST; small tags and cut ends) VL: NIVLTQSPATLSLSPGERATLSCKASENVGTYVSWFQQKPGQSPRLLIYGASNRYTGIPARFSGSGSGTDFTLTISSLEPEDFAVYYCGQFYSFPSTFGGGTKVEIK VH: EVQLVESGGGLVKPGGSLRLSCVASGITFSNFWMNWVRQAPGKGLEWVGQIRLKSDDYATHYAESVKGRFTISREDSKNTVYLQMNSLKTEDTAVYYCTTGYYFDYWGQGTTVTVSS", "MFI [MFI]": 1420}
{"binder": "Hab015VL4VH6a-hFc (scFv, part only; not given: scFv linker and human IgG1 Fc, V domains shown, not shown: another chain or arm of the molecule; a dimerising Fc or GST; small tags and cut ends) VL: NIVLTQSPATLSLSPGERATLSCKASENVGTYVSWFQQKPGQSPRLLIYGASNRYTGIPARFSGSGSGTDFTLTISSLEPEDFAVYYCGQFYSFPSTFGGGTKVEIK VH: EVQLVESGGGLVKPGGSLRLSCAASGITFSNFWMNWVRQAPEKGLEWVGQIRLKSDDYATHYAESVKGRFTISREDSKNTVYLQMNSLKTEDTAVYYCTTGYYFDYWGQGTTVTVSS", "MFI [MFI]": 1460}
